system: JAK2 (Homo sapiens, UniProt O60674)
Construct: host or cells: baculovirus expression system
Sequence (O60674 whole entry): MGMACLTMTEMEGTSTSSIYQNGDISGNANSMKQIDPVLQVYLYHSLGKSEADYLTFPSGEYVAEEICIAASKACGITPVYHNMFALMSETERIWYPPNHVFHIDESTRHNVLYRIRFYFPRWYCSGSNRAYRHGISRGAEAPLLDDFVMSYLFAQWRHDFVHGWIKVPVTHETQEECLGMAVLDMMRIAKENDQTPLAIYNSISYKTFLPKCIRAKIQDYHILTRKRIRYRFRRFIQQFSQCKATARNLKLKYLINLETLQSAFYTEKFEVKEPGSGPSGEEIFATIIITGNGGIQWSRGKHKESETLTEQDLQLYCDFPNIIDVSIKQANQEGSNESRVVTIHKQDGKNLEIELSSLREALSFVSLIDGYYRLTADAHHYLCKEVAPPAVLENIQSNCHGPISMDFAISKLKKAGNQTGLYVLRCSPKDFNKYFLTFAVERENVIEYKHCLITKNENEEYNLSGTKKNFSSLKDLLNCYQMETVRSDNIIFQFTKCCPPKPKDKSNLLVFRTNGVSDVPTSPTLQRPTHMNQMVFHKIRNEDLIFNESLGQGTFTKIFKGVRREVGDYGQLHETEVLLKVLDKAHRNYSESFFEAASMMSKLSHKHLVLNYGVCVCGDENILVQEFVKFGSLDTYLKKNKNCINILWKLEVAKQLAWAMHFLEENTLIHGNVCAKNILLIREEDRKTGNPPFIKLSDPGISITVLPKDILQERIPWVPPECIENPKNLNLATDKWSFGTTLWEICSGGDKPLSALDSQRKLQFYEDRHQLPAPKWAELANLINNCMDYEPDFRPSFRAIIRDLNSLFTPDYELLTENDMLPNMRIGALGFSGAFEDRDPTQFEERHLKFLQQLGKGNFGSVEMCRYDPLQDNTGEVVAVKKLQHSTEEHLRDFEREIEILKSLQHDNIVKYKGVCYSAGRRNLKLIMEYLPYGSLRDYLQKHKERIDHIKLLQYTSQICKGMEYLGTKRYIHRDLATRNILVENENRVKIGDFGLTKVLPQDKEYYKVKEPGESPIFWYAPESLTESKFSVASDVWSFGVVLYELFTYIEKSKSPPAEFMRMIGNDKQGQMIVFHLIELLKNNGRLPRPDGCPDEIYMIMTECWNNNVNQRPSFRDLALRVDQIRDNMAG
test_protocol: Recombinant Human JAK2 Kinase Assay (TRF)
Format: biochemical
details: JAK2 Kinase Inhibition; read-out: JAK2 Potency
pIC50: −log10 of the molar value.
Below, each of the compounds is paired with its reported pIC50 value.

Worked cases, pIC50 given:
compound: CS(=O)(=O)c1ccc(-c2ccc3cnc(Nc4ccc(N5CCCC(N6CCOCC6)C5)cc4)nn23)cc1 (stereo not shown)
pIC50: > 7.00

compound: COc1cc(N2CCC(N3CCN(C)CC3)CC2)ccc1Nc1ncc2cc3ccccc3n2n1
pIC50: 5.00 to 6.00

compound: CS(=O)(=O)Nc1ccccc1-c1ccc2cnc(Nc3ccc(N4CCOCC4)cc3)nn12
pIC50: > 7.00

Now for the compound whose pIC50 we want.
INPUT: Hello, I am looking for reported pIC50 with JAK2 (Homo sapiens, UniProt O60674) for COc1ccc(Cl)cc1-c1ccc2cnc(Nc3ccc4ncccc4c3)nn12 . Could you help?
OUTPUT: > 7.00
